system: UCD52 (cells of a triple-negative basal-like breast cancer xenograft); assay: cell viability of combination (% of vehicle); higher = less cytotoxic; conditions: 1 µM; 72 h; partner dose: 10 nM
Item-by-item account of cell viability of combination

[
  {
    "molecule": "COCCOC(=O)C1=C(C)NC(C)=C(C(=O)OCC=Cc2ccccc2)C1c1cccc([N+](=O)[O-])c1 (configuration not stated) [Cilnidipine] + CC(C)C[C@H](NC(=O)[C@H](CCc1ccccc1)NC(=O)CN1CCOCC1)C(=O)N[C@@H](Cc1ccccc1)C(=O)N[C@@H](CC(C)C)C(=O)[C@@]1(C)CO1",
    "cell viability of combination": 63.2
  },
  {
    "molecule": "Clc1ccc(COC(Cn2ccnc2)c2ccc(Cl)cc2Cl)c(Cl)c1.O=[N+]([O-])O (configuration not stated) [Miconazole Nitrate] + CC(C)C[C@H](NC(=O)[C@H](CCc1ccccc1)NC(=O)CN1CCOCC1)C(=O)N[C@@H](Cc1ccccc1)C(=O)N[C@@H](CC(C)C)C(=O)[C@@]1(C)CO1",
    "cell viability of combination": 59.3
  }
]

----------
system: HCI03 (cells of an ER-positive luminal breast cancer xenograft); assay: cell viability (% of vehicle); higher = less cytotoxic; conditions: 10 µM; 72 h
Item-by-item account of cell viability
experimental.readout: cell viability

[
  {
    "compound": "CC12CCC3c4ccc(O)cc4CCC3C1CCC2=O (configuration not stated)",
    "experimental.readout": "cell viability",
    "reported.measurement": 112
  },
  {
    "compound": "COc1ccc(C2CNC(=O)C2)cc1OC1CCCC1 (configuration not stated) [Rolipram]",
    "experimental.readout": "cell viability",
    "reported.measurement": 140
  },
  {
    "compound": "CC(=O)OCC(=O)[C@@]12OC(C)(C)O[C@@H]1C[C@H]1[C@@H]3C[C@H](F)C4=CC(=O)C=C[C@]4(C)[C@@]3(F)[C@@H](O)C[C@@]12C [Fluocinonide]",
    "experimental.readout": "cell viability",
    "reported.measurement": 179
  },
  {
    "compound": "CCOC(=O)OC1(C(=O)OCCl)CCC2C3CCC4=CC(=O)C=CC4(C)C3C(O)CC21C (configuration not stated) [Loteprednol etabonate]",
    "experimental.readout": "cell viability",
    "reported.measurement": 196
  },
  {
    "compound": "CN1C(C(=O)Nc2ccccn2)=C(O)c2ccccc2S1(=O)=O",
    "experimental.readout": "cell viability",
    "reported.measurement": 102
  },
  {
    "compound": "COc1ccccc1OCC(O)COC(N)=O (configuration not stated)",
    "experimental.readout": "cell viability",
    "reported.measurement": 132
  },
  {
    "compound": "Cc1cc(=O)[nH]c(=S)[nH]1",
    "experimental.readout": "cell viability",
    "reported.measurement": 119
  }
]

----------
test system: HCI09 (cells of a triple-negative luminal androgen receptor type breast cancer xenograft); assay: cell viability (% of vehicle); higher = less cytotoxic; details: 10 µM; 72 h
Where a name gives a salt, the structure may show the parent alone.
Item-by-item account of cell viability

[
  {
    "compound": "Cc1ccc(C(=O)C(C)CN2CCCCC2)cc1.Cl (configuration not stated) [Tolperisone HCl]",
    "cell viability": 101
  },
  {
    "compound": "CC1(C)OC2COC3(COS(N)(=O)=O)OC(C)(C)OC3C2O1 (configuration not stated) [Topiramate]",
    "cell viability": 95.2
  },
  {
    "compound": "CN(C)c1nc(N(C)C)nc(N(C)C)n1 [Altretamine]",
    "cell viability": 89.6
  },
  {
    "compound": "CCCN(CCC)S(=O)(=O)c1ccc(C(=O)O)cc1 [Probenecid]",
    "cell viability": 125
  },
  {
    "compound": "Cc1cccc(C)c1NC(=O)C1CCCCN1C.Cl (configuration not stated) [Mepivacaine HCl]",
    "cell viability": 97.9
  },
  {
    "compound": "O=C(C=Cn1cnc(-c2cc(C(F)(F)F)cc(C(F)(F)F)c2)n1)NNc1cnccn1",
    "cell viability": 31.5
  },
  {
    "compound": "COc1ncc(-c2ccc3nccc(-c4ccnnc4)c3c2)cc1NS(=O)(=O)c1ccc(F)cc1F",
    "cell viability": 26.6
  },
  {
    "compound": "CNS(=O)(=O)Cc1ccc2[nH]cc(CCN(C)C)c2c1 [Sumatriptan]",
    "cell viability": 84
  },
  {
    "compound": "NCC(=O)CCC(=O)O [5-Aminolevulinic acid HCl]",
    "cell viability": 89.9
  },
  {
    "compound": "C=CC[C@@H]1/C=C(\\C)C[C@H](C)C[C@H](OC)[C@H]2O[C@@](O)(C(=O)C(=O)N3CCCC[C@H]3C(=O)O[C@H](/C(C)=C/[C@@H]3CC[C@@H](O)[C@H](OC)C3)[C@H](C)[C@@H](O)CC1=O)[C@H](C)C[C@@H]2OC [Tacrolimus (FK506)]",
    "cell viability": 50.6
  },
  {
    "compound": "CCN(CC)C(=O)C(C#N)=Cc1cc(O)c(O)c([N+](=O)[O-])c1 [Entacapone]",
    "cell viability": 105
  },
  {
    "compound": "COc1cc2c(cc1OC)C(=O)C(CC1CCN(Cc3ccccc3)CC1)C2.Cl (configuration not stated) [Donepezil HCl]",
    "cell viability": 113
  },
  {
    "compound": "CCC(C)(C)c1ccc(CC(C)CN2CC(C)OC(C)C2)cc1.Cl (configuration not stated) [Amorolfine HCl]",
    "cell viability": 88.4
  },
  {
    "compound": "CCC(CC)C(NC(C)=O)C1C(N=C(N)N)CC(C(=O)O)C1O (configuration not stated) [Peramivir]",
    "cell viability": 91.2
  },
  {
    "compound": "OCCN1CC(O)C(O)C(O)C1CO (configuration not stated) [Miglitol]",
    "cell viability": 99.2
  },
  {
    "compound": "CN=C(NC#N)NCCSCc1nc[nH]c1C [Cimetidine]",
    "cell viability": 93.8
  },
  {
    "compound": "COc1cc(Nc2ncc(F)c(Nc3ccc4c(n3)N(COP(=O)([O-])[O-])C(=O)C(C)(C)O4)n2)cc(OC)c1OC.[Na+].[Na+] [R788 disodium]",
    "cell viability": 95.4
  }
]

----------
Item-by-item account of cell viability
system: HCI16 (cells of a triple-negative basal-like breast cancer xenograft); experiment: cell viability (% of vehicle); higher = less cytotoxic; details: 10 µM; 72 h
experimental.readout: cell viability

[
  {
    "molecule": "Cl.O=C1c2cccc3c2C(CCC3)CN1C1CN2CCC1CC2 (stereo not drawn) [Palonosetron HCl]",
    "reported.measurement": 111
  },
  {
    "molecule": "CC(C)CC(NC(=O)C(CCc1ccccc1)NC(=O)CN1CCOCC1)C(=O)NC(Cc1ccccc1)C(=O)NC(CC(C)C)C(=O)C1(C)CO1 (stereo not drawn) [Carfilzomib (PR-171)]",
    "reported.measurement": 38.9
  },
  {
    "molecule": "CNC(=O)c1cc(Oc2ccc(NC(=O)Nc3ccc(Cl)c(C(F)(F)F)c3)cc2)ccn1.Cc1ccc(S(=O)(=O)O)cc1 [Sorafenib Tosylate]",
    "reported.measurement": 45.9
  }
]

----------
test system: HCI11 (cells of an ER-positive luminal breast cancer xenograft); assay: cell viability (% of vehicle); higher = less cytotoxic; conditions: 10 µM; 72 h

[
  {
    "compound": "CC1(C)O[C@@H]2C[C@H]3[C@@H]4CCC5=CC(=O)C=C[C@]5(C)[C@@]4(F)[C@@H](O)C[C@]3(C)[C@]2(C(=O)CO)O1 [Triamcinolone Acetonide]",
    "cell viability": 111
  },
  {
    "compound": "Nc1cccc2c1CN(C1CCC(=O)NC1=O)C2=O (configuration not stated) [Lenalidomide (CC-5013)]",
    "cell viability": 102
  }
]

----------
test system: WHIM30 (cells of a triple-negative basal-like breast cancer xenograft); experiment: cell viability (% of vehicle); higher = less cytotoxic; settings: 1 µM; 72 h;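 also: cells dissociated from PDX tumors propagated in female NSG mouse mammary fat pads, vehicle control 0.1% DMSO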
experimental.readout: cell viability

[
  {
    "compound": "CCCCc1oc2ccccc2c1C(=O)c1cc(I)c(OCCN(CC)CC)c(I)c1.Cl [Amiodarone HCl]",
    "experimental.readout": "cell viability",
    "reported.measurement": 98.4
  },
  {
    "compound": "Clc1ccc(C(Cn2ccnc2)OCc2ccc(Sc3ccccc3)cc2)c(Cl)c1.O=[N+]([O-])O (stereo not drawn) [Fenticonazole Nitrate]",
    "experimental.readout": "cell viability",
    "reported.measurement": 91.5
  },
  {
    "compound": "COc1cc2c(Oc3ccc4[nH]c(C)cc4c3F)ncnc2cc1OCCCN1CCCC1",
    "experimental.readout": "cell viability",
    "reported.measurement": 47.5
  },
  {
    "compound": "CC(=O)C1(O)Cc2c(O)c3c(c(O)c2C(OC2CC(N)C(O)C(C)O2)C1)C(=O)c1ccccc1C3=O.Cl (stereo not drawn) [Idarubicin HCl]",
    "experimental.readout": "cell viability",
    "reported.measurement": 41.2
  },
  {
    "compound": "CC(=O)c1cc2c(o1)C(=O)c1ccccc1C2=O",
    "experimental.readout": "cell viability",
    "reported.measurement": 33.9
  },
  {
    "compound": "Nc1ncn(C2OC(CO)C(O)C2O)c(=O)n1 (stereo not drawn)",
    "experimental.readout": "cell viability",
    "reported.measurement": 93.9
  },
  {
    "compound": "CN(C)CCOc1ccc(C(=C(CCCl)c2ccccc2)c2ccccc2)cc1.O=C(O)CC(O)(CC(=O)O)C(=O)O [Toremifene Citrate]",
    "experimental.readout": "cell viability",
    "reported.measurement": 102
  },
  {
    "compound": "CC(C)CC(NC(=O)C(CCc1ccccc1)NC(=O)CN1CCOCC1)C(=O)NC(Cc1ccccc1)C(=O)NC(CC(C)C)C(=O)C1(C)CO1 (stereo not drawn)",
    "experimental.readout": "cell viability",
    "reported.measurement": 22.9
  }
]

The values you see were collected from the supplement of paper PMC6992640.
